Listing of entries alongside the reported TGI.
- Test system: SF-295 CNS
- protocol: NCI tumour cell line growth inhibition, 48 h
measurement.name: TGI

1. S=C(N/N=C(\c1ccccc1)c1ccccn1)NC1CCCCC1 :: > 80.1 µM
2. Cc1ccc(Nc2nccc(N(C)c3ccc4c(C)n(C)nc4c3)n2)cc1S(N)(=O)=O :: > 100 µM
3. O=C(/C=C\c1cccc2ccccc12)c1ccc(F)cc1 :: 41.1 µM
4. c1ccc(-c2nc3ccccc3nc2SCc2cccnc2)cc1 :: > 100 µM
5. CCNC(=O)c1cc(Cl)ccc1NC(=O)C12CC3CC(CC(C3)C1)C2 :: > 100 µM
6. OC1c2ccccc2CCC1CN1CCN(CCOC(c2ccc(F)cc2)c2ccc(F)cc2)CC1 (centres undefined) :: 46.1 µM
7. COc1ccc(C#Cc2ccc(=O)oc2-c2cc(OC)c(OC)c(OC)c2)cc1O :: > 45.2 µM
8. CC(=O)OC1CCC2(C)C(CCC3C2CC(=O)C2(C)C3CC(N3CC3)C2C(C)=O)C1 (centres undefined) :: 51 µM
9. COC(=O)C1CCN(C(=O)OC(C)(C)C)CC1 :: > 100 µM
